Biological target: Cannabinoid receptor 2 (Homo sapiens, UniProt P34972)
Sequence (P34972 whole entry): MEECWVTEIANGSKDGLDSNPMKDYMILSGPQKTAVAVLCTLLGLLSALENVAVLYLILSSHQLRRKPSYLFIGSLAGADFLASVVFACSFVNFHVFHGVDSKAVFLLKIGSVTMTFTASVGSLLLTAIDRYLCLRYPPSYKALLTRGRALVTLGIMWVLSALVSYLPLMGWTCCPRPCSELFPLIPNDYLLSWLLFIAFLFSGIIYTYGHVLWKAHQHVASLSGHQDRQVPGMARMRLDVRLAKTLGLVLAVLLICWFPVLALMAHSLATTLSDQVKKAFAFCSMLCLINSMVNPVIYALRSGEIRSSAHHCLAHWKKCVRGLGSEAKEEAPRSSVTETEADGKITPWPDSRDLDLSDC
Test: Displacement of [3H]CP-55940 from human recombinant CB2 receptor expressed in HEK293 cells
Property measured: Ki (µM)

>>> reported_measurement("CCCCC/C=C\\C/C=C\\C/C=C\\C/C=C\\CCCC(=O)Nc1ccc(O)cc1")
1.3
>>> reported_measurement("CCCCC/C=C\\C/C=C\\C/C=C\\C/C=C\\CCCC(=O)Nc1ccc(O)c(OC)c1")
1
>>> reported_measurement("CCCCC/C=C\\C/C=C\\C/C=C\\C/C=C\\CCCC(=O)NCc1ccc(O)cc1")
0.1
>>> reported_measurement("CCCCC/C=C\\C/C=C\\C/C=C\\C/C=C\\CCCC(=O)Nc1ccc2[nH]ncc2c1")
1

---

Target: Fatty-acid amide hydrolase 1 (Rattus norvegicus) (UniProt P97612)
Sequence (whole entry): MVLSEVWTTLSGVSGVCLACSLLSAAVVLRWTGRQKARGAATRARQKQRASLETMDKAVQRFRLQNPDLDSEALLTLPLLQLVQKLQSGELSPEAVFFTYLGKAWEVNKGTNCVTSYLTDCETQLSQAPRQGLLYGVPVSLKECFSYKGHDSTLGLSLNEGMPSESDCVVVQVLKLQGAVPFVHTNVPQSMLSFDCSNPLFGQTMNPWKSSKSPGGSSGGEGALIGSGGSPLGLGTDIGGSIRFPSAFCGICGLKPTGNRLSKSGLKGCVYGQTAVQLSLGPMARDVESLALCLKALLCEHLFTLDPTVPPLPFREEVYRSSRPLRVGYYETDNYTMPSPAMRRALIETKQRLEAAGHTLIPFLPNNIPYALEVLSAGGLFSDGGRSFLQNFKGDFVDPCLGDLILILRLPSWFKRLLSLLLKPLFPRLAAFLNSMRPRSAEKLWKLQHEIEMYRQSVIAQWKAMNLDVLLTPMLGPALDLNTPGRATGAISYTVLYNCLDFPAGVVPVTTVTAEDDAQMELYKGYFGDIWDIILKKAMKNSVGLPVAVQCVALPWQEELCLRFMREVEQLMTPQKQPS
Assay: Inhibition of FAAH in rat brain membrane assessed as [14C]anandamide hydrolysis at 50 uM by scintillation counting
Assay type: cell membranes
Property measured: inhibition (%)

>>> reported_measurement("CC(=O)Nc1ccc(O)cc1")
22
>>> reported_measurement("CCCCC/C=C\\C/C=C\\C/C=C\\C/C=C\\CCCC(=O)Nc1ccc2[nH]ncc2c1")
2
>>> reported_measurement("CCCCC/C=C\\C/C=C\\C/C=C\\C/C=C\\CCCC(=O)NCc1ccc(O)cc1")
88
>>> reported_measurement("COc1cc(NC(C)=O)ccc1O")
8
>>> reported_measurement("CC(=O)Nc1ccc2[nH]ncc2c1")
4
>>> reported_measurement("CC(=O)NCc1ccc(O)cc1")
4
>>> reported_measurement("CCCCC/C=C\\C/C=C\\C/C=C\\C/C=C\\CCCC(=O)Nc1ccc(O)cc1")
55
>>> reported_measurement("CCCCC/C=C\\C/C=C\\C/C=C\\C/C=C\\CCCC(=O)Nc1ccc(O)c(OC)c1")
62

---

Biological target: Cannabinoid receptor 1 (Homo sapiens, UniProt P21554)
Sequence (P21554 whole entry): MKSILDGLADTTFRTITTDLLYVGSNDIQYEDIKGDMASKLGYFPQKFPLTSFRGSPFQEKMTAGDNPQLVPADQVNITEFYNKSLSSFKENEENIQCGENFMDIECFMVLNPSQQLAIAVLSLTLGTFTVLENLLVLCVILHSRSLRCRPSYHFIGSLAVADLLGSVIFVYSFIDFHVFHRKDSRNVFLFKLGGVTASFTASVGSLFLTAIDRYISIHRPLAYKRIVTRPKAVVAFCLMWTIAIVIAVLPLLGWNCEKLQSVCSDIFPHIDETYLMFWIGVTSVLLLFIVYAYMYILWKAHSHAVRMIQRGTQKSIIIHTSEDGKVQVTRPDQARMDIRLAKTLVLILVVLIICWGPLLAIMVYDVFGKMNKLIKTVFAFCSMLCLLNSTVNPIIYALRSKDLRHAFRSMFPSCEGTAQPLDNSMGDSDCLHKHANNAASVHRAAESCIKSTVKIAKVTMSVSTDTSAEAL
Assay: Displacement of [3H]CP-55940 from human recombinant CB1 receptor expressed in HEK293 cells at 10 uM
Type: cell-based
Property measured: Activity (%)

>>> reported_measurement("CC(=O)Nc1ccc(O)cc1")
13
>>> reported_measurement("COc1cc(NC(C)=O)ccc1O")
16
>>> reported_measurement("CC(=O)NCc1ccc(O)cc1")
5
>>> reported_measurement("CC(=O)Nc1ccc2[nH]ncc2c1")
1
